Hello, the source for this data is ChEMBL document CHEMBL4699630, in case you need it.

System: MDA-MB-231
ASSAY EXPLANATION: Cytotoxicity against Non-ERalpha-dependent human MDA-MB-231 cells assessed as reduction in cell viability incubated for 48 hrs by MTT assay
Format: functional, cell-based
APPLIED CONDITIONS: MDA-MB-231, 48 h
Each entry below lists one item and its recorded IC50 value.

{"columns": ["COMPOUND", "LIMIT OPERATOR", "IC50, µM"],
 "data": [
  ["N#Cc1c(-c2ccccc2Cl)c2c(nn3c4ccc5ccccc5c4nnc23)[nH]c1=O", "=", 9.76],
  ["O=c1[nH]cc(F)c(=O)[nH]1 [FLUOROURACIL]", "=", 15.7],
  ["N#Cc1c(-c2ccccc2Cl)c2c(N/N=C3\\C=CC(=O)c4ccccc43)n[nH]c2[nH]c1=O", "≥", 50],
  ["N#Cc1c(N)nc2[nH]nc(N)c2c1-c1ccc(-c2c(C#N)c(N)nc3[nH]nc(N)c23)cc1", "=", 35.7],
  ["N#Cc1nnc2c3c(-c4ccccc4Cl)c(C#N)c(=O)[nH]c3nn2c1N", "≥", 50],
  ["N#Cc1c(O)nc2nn3c4cc(O)ccc4nnc3c2c1-c1ccccc1Cl", "=", 39.5],
  ["CCOC(=O)c1nnc2c3c(-c4ccccc4Cl)c(C#N)c(=O)[nH]c3nn2c1O", "=", 38.7],
  ["N#Cc1nnc2c3c(-c4ccccc4Cl)c(C#N)c(O)nc3nn2c1O", "=", 10.6],
  ["N#Cc1c(-c2ccccc2Cl)c2c(nn3c4ccc(O)cc4nnc23)[nH]c1=O", "=", 24.7],
  ["N#Cc1c(N)nc2nn3c4ccc5ccccc5c4nnc3c2c1-c1ccc(-c2c(C#N)c(N)nc3nn4c(nnc5ccc6ccccc6c54)c23)cc1", "=", 43.7],
  ["CC(=O)c1nnc2c3c(-c4ccccc4Cl)c(C#N)c(O)nc3nn2c1C", "=", 20.8]
]}

---

TARGET OR TEST SYSTEM: Serine/threonine-protein kinase pim-1 (Homo sapiens, UniProt P11309)
Sequence (P11309 whole entry): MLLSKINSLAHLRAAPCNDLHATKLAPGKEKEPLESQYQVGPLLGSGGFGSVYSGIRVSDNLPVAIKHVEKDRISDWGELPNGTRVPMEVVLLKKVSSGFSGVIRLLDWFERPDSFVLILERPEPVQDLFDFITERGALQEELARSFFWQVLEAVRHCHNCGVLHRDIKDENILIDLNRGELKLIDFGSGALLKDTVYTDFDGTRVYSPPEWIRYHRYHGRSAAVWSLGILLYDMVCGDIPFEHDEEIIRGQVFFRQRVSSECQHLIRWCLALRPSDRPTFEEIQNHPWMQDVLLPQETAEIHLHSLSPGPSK
ASSAY EXPLANATION: Inhibition of recombinant human GST-tagged PIM1 by ELISA
pIC50: −log10 of the molar value.
Each entry below lists one item and its recorded pIC50 value.
REPORTED METRIC: pIC50

{"columns": ["CHEM SMILES", "NUMERIC READOUT"],
 "data": [
  ["N#Cc1nnc2c3c(-c4ccccc4Cl)c(C#N)c(=O)[nH]c3nn2c1N", 7.37],
  ["N#Cc1c(O)nc2nn3c4cc(O)ccc4nnc3c2c1-c1ccccc1Cl", 7.06],
  ["N#Cc1c(-c2ccccc2Cl)c2c(nn3c4ccc(O)cc4nnc23)[nH]c1=O", 6.95],
  ["N#Cc1c(-c2ccccc2Cl)c2c(N/N=C3\\C=CC(=O)c4ccccc43)n[nH]c2[nH]c1=O", 7.02],
  ["CCOC(=O)c1nnc2c3c(-c4ccccc4Cl)c(C#N)c(=O)[nH]c3nn2c1O", 7.59]
]}
